Kindly supply the reported MIC values for the records listed here.
# Test system: Citrobacter freundii
# PROTOCOL_NOTES: MIC in vitro of a 1:4 combination of ceftriaxone with a compound of formula I (test D)
# Assay type: cell-based
# APPLIED_CONDITIONS: 1:4 combination of ceftriaxone with the compound
Give just the numeric value; µg/mL need not be written.

Kindly indicate its recorded MIC. Item: O=C(NCCc1ccc(O)c(O)c1)N1CC[C@@H]2[C@H]1C(=O)N2S(=O)(=O)[O-].[Na+]
16

Kindly indicate its recorded MIC. Item: O=C(CNc1ccc(O)cc1)N1CC[C@@H]2[C@H]1C(=O)N2S(=O)(=O)[O-].[Na+]
8

Kindly indicate its recorded MIC. Item: CCN(CC)CC.O=C([C@@H](O)c1ccccc1)N1CC[C@@H]2[C@H]1C(=O)N2S(=O)(=O)O
8

Kindly indicate its recorded MIC. Item: CC(=O)N/C(=C\c1ccccc1)C(=O)N1CC[C@@H]2[C@H]1C(=O)N2S(=O)(=O)[O-].[Na+]
16

Kindly indicate its recorded MIC. Item: O=C([C@H](O)c1ccccc1)N1CC[C@@H]2[C@H]1C(=O)N2S(=O)(=O)[O-].[Na+]
8

Kindly indicate its recorded MIC. Item: N[C@@H](C(=O)N1CC[C@@H]2[C@H]1C(=O)N2S(=O)(=O)O)c1ccc(O)c(O)c1.[Na]
4

Kindly indicate its recorded MIC. Item: O=C(Nc1nnc(SCC(=O)N2CC[C@@H]3[C@H]2C(=O)N3S(=O)(=O)[O-])s1)OCc1ccccc1.[Na+]
1

----------
# TARGET_DESC: β-lactamase (Citrobacter freundii, UniProt P05193)
# Construct: Various β-lactamases can be isolated from penicillin- or cephalosporin-resistant bacterial strains such as; endogenous in cells; host or cells: Citrobacter freundii 1203 (enzyme purified from the crude cell extract, after ampicillin induction when necessary)
# Sequence (P05193 21-381): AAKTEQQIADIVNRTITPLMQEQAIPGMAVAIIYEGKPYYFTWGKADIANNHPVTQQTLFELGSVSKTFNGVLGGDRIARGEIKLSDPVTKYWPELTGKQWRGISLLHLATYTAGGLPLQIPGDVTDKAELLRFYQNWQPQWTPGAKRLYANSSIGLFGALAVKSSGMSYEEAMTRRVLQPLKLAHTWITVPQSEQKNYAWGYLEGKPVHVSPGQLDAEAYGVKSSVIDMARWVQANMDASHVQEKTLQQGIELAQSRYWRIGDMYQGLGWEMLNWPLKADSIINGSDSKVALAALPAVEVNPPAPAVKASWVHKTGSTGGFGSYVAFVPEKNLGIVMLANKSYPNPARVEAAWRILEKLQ
# PROTOCOL_NOTES: biochemical
# APPLIED_CONDITIONS: IC 50 nM, isolated β-lactamase of Citrobacter freundii; substrate nitrocefin 0.1 mM; 15 minutes pre-incubation with inhibitor; 37° C., pH 7.0
# Experimental: A. Isolation of the β-lactamases […] The determination of the activity of the isolated β-lactamases can be carried out according to the method of O'Callaghan, C. […] The cleavage of the substrate, which is accompanied by a change in colour, is effected at 37° C. and is followed quantitatively at 482 nm using a spectral photometer. […]
PARAMETER: IC50
Just so you know, I need the unit written after the number.

Kindly indicate its recorded IC50. Item: O=C(CNc1ccc(O)cc1)N1CC[C@@H]2[C@H]1C(=O)N2S(=O)(=O)[O-].[Na+] [6(v), sodium salt]
3.5 nM

Kindly indicate its recorded IC50. Item: O=C1OCCN1NC(=O)N1CC[C@@H]2[C@H]1C(=O)N2S(=O)(=O)[O-].[Na+] [17(ad), sodium salt]
75 nM

Kindly indicate its recorded IC50. Item: O=C(NCCc1ccc(O)c(O)c1)N1CC[C@@H]2[C@H]1C(=O)N2S(=O)(=O)[O-].[Na+] [17(k), sodium salt]
109 nM

Kindly indicate its recorded IC50. Item: Nc1nc(SCC(=O)N2CC[C@@H]3[C@H]2C(=O)N3S(=O)(=O)[O-])n(C(=O)OCc2ccccc2)n1.[Na+] [23(g), sodium salt]
280 nM

----------
# System: Citrobacter freundii
# PROTOCOL_NOTES: MIC in vitro of a 1:4 combination of ceftriaxone with a compound of formula I (test D)
# Format: cell-based
# APPLIED_CONDITIONS: 1:4 combination of ceftriaxone with the compound
Counter-ions that a name gives are not always drawn.
Kindly supply the reported MIC values for the records listed here.
Just so you know, I need the unit written after the number.

Kindly indicate its recorded MIC. Item: Nc1nc(CNC(=O)N2CC[C@@H]3[C@H]2C(=O)N3S(=O)(=O)[O-])cs1.[Na+]
1 µg/mL

Kindly indicate its recorded MIC. Item: O=C1[C@@H]2[C@@H](CCN2S(=O)(=O)Cc2ccccc2)N1S(=O)(=O)[O-].[Na+]
4 µg/mL

Kindly indicate its recorded MIC. Item: O=C(NNc1ccccc1)N1CC[C@@H]2[C@H]1C(=O)N2S(=O)(=O)O [17(d), sodium salt]
2 µg/mL

Kindly indicate its recorded MIC. Item: O=C(COn1nnc2ccccc21)N1CC[C@@H]2[C@H]1C(=O)N2S(=O)(=O)[O-].[Na+]
2 µg/mL

Kindly indicate its recorded MIC. Item: O=C1SCCC1NC(=O)N1CC[C@@H]2[C@H]1C(=O)N2S(=O)(=O)O (mixture of isomers) [17(j), sodium salt]
2 µg/mL

Kindly indicate its recorded MIC. Item: NC(C(=O)N1CC[C@@H]2[C@H]1C(=O)N2S(=O)(=O)O)c1cccc(O)c1 (mixture of isomers)
2 µg/mL

Kindly indicate its recorded MIC. Item: COC(=O)NN1CC[C@@H]2[C@H]1C(=O)N2S(=O)(=O)[O-].[Na+]
1 µg/mL

Kindly indicate its recorded MIC. Item: NC(C(=O)N1CC[C@@H]2[C@H]1C(=O)N2S(=O)(=O)O)c1cccs1 (single isomer, unassigned) [5(e)]
2 µg/mL

Kindly indicate its recorded MIC. Item: COC1=C(C(=O)O)N2C(=O)C3C2C(C1)CN3C(=O)OC(C)(C)C (stereo not drawn)
4 µg/mL

Kindly indicate its recorded MIC. Item: O=C(NCc1nc(C2CC2)no1)N1CC[C@@H]2[C@H]1C(=O)N2S(=O)(=O)[O-].[Na+]
1 µg/mL

Kindly indicate its recorded MIC. Item: O=C(/C=C/c1ccc(O)c(O)c1)N1CC[C@@H]2[C@H]1C(=O)N2S(=O)(=O)O [6(u), sodium salt]
2 µg/mL

Kindly indicate its recorded MIC. Item: O=C(Cc1cccnc1)N1CC[C@@H]2[C@H]1C(=O)N2S(=O)(=O)[O-].[Na+]
4 µg/mL

Kindly indicate its recorded MIC. Item: O=C(CSc1nnnn1-c1ccccc1)N1CC[C@@H]2[C@H]1C(=O)N2S(=O)(=O)O [5(q), sodium salt]
2 µg/mL

Kindly indicate its recorded MIC. Item: O=C(CNc1cc[nH]c(=O)n1)N1CC[C@@H]2[C@H]1C(=O)N2S(=O)(=O)O [23(f), sodium salt]
0.5 µg/mL

Kindly indicate its recorded MIC. Item: O=C1OCCN1NC(=O)N1CC[C@@H]2[C@H]1C(=O)N2S(=O)(=O)[O-].[Na+]
2 µg/mL

Kindly indicate its recorded MIC. Item: CC(=O)NC(C(=O)N1CC[C@@H]2[C@H]1C(=O)N2S(=O)(=O)O)c1ccccc1 (single isomer, unassigned) [5(g), sodium salt]
8 µg/mL

Kindly indicate its recorded MIC. Item: Cc1cc(=O)oc2cc(OCC(=O)N3CC[C@@H]4[C@H]3C(=O)N4S(=O)(=O)[O-])ccc12.[Na+]
16 µg/mL

Kindly indicate its recorded MIC. Item: O=C(NCc1ccccn1)N1CC[C@@H]2[C@H]1C(=O)N2S(=O)(=O)[O-].[Na+]
2 µg/mL

Kindly indicate its recorded MIC. Item: O=C(C=Cc1cncn1S(=O)(=O)[O-])N1CC[C@@H]2[C@H]1C(=O)N2S(=O)(=O)[O-].[Na+].[Na+]
2 µg/mL

Kindly indicate its recorded MIC. Item: O=C(NCc1ccccc1)N1CC[C@@H]2[C@H]1C(=O)N2S(=O)(=O)O [Example 3, sodium salt]
2 µg/mL

Kindly indicate its recorded MIC. Item: O=C(CCc1ccccc1)N1CC[C@@H]2[C@H]1C(=O)N2S(=O)(=O)[O-].[Na+]
16 µg/mL

Kindly indicate its recorded MIC. Item: O=C(NC1CCCC1)N1CC[C@@H]2[C@H]1C(=O)N2S(=O)(=O)[O-].[Na+]
1 µg/mL

Kindly indicate its recorded MIC. Item: O=C(/C=C/c1ccco1)N1CC[C@@H]2[C@H]1C(=O)N2S(=O)(=O)O [Example 5(a), sodium salt]
4 µg/mL

Kindly indicate its recorded MIC. Item: O=C1C[C@H](NC(=O)N2CC[C@@H]3[C@H]2C(=O)N3S(=O)(=O)[O-])C(=O)N1.[Na+]
1 µg/mL

Kindly indicate its recorded MIC. Item: CC(C)=C[C@@H]1[C@@H](C(=O)N2CC[C@@H]3[C@H]2C(=O)N3S(=O)(=O)[O-])C1(C)C.[Na+]
16 µg/mL

Kindly indicate its recorded MIC. Item: CCN(CC)CC.Nc1nc(C(N)C(=O)N2CC[C@@H]3[C@H]2C(=O)N3S(=O)(=O)O)cs1 (mixture of isomers) [6(r)]
2 µg/mL

Kindly indicate its recorded MIC. Item: N[C@@H](Cc1c[nH]c2ccccc12)C(=O)N1CC[C@@H]2[C@H]1C(=O)N2S(=O)(=O)O
1 µg/mL

Kindly indicate its recorded MIC. Item: O=C(/C=C/c1ccc(OS(=O)(=O)[O-])c(OS(=O)(=O)[O-])c1)N1CC[C@@H]2[C@H]1C(=O)N2S(=O)(=O)[O-].[Na+].[Na+].[Na+]
16 µg/mL

Kindly indicate its recorded MIC. Item: O=C(CS(=O)(=O)c1ccc(O)c(O)c1)N1CC[C@@H]2[C@H]1C(=O)N2S(=O)(=O)O [Example 20, sodium salt]
4 µg/mL

Kindly indicate its recorded MIC. Item: Cn1cnnc1SCC(=O)N1CC[C@@H]2[C@H]1C(=O)N2S(=O)(=O)[O-].[Na+]
0.5 µg/mL

Taken from patent US6566355B1.
